- System: HeLa Kyoto;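 also: HeLa Kyoto cells arrested at G1/S by double thymidine block, proteins quantified by TMT10plex mass spectrometry in mild NP-40 versus SDS extracts, three biological replicates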
- Protocol: solubility in G1/S (NP-40 vs SDS abundance) (log2 ratio); higher = more soluble
- Applied Conditions: cell cycle stage: G1/S
Quantity: solubility in G1/S (log2)

[[record]]
construct_sequence = "MADYWKSQPKKFCDYCKCWIADNRPSVEFHERGKNHKENVAKRISEIKQKSLDKAKEEEKASKEFAAMEAAALKAYQEDLKRLGLESEILEPSITPVTSTIPPTSTSNQQKEKKEKKKRKKDPSKGRWVEGITSEGYHYYYDLISGASQWEKPEGFQGDLKKTAVKTVWVEGLSEDGFTYYYNTETGESRWEKPDDFIPHTSDLPSSKVNENSLGTLDESKSSDSHSDSDGEQEAEEGGVSTETEKPKIKFKEKNKNSDGGSDPETQKEKSIQKQNSLGSNEEKSKTLKKSNPYGEWQEIKQEVESHEEVDLELPSTENEYVSTSEADGGGEPKVVFKEKTVTSLGVMADGVAPVFKKRRTENGKSRNLRQRGDDQ [WBP4]"
quantity = "solubility in G1/S (log2)"
recorded_measurement = -0.703

